# Test target: T1, human dimeric EGFR (EGFR.mFc) (human)
# T1 construct: Soluble dimeric EGFR construct
# Test protocol: SPR 37C, mAb captured by anti-human Fc, EGFR.mFc analyte
Reported property: kon (M⁻¹ s⁻¹)
Could you give me the number in M⁻¹ s⁻¹? Just the number is fine.

Answered examples (3):
* H1H155P (antibody, human IgG1, V domains shown, Human IgG1 Fc (H1H)) VH: QVQLVESGGGVVQPGRSLRLSCAASGFTFSIYGMHWVRQAPGKGLEWVTVISDDGSKKYYVDSVKGRFTLSRDNSKNTLYLQMNSLRAEDTAVYYCARDRITGTNWYGMDVWGQGTTVTVSS VL: DIQMTQSPSSLSASVGDRVTITCRASQDISNYLAWFQQKPGKAPKSLIFAASSLQSGGPSKFSGSGSGTDFTLTISSLQPEDFATYYCQQYNRYPFTFGPGTKVDIK | 329000
* H1H158P (antibody, human IgG1, V domains shown, Human IgG1 Fc (H1H)) VH: QVQLVESGGGVVQPGGSLRLSCAASGFTFSIYGIHWVRQAPGKGLEWVAVISDDGSNKKYADSVKGRFTISRDNSKNTLYLQMNSLRAEDTAIFYCAKDRITGTHYYGMDVWGQGTTVTVSS VL: DIQMTQSPSSLSASVGDRVSITCRASQDISNYLAWFQQKPGKAPKSLIYAASSLQSGVPSKFSGSGSGIEFTLTISSLQPEDFSTYYCHQYNRFPWTFGQGTKVEIK | 408000
* H1H141P (antibody, human IgG1, V domains shown, Human IgG1 Fc (H1H)) VH: QVQLQESGPGLVKPSQTLSLTCTVSGGSISSGDYYWNWIRQYPGKGLELIGYIYYSGITYYNPSLKSRLTISLDTSKNQFSLKLSSVTAADTAVYYCARDRVELRAFDIWGQGTMVTVSS VL: DIQMTQSPSSLSASVGDRVTITCQASQDISNYLNWYQQKPGKAPKLLINDASNLETGVPSRFSGSGSGTDFTFTISSLQPEDIATYYCQHYDSLPLTFGQGTRLEIK | 903000

Next binder, please.
Fill blank: measured kon of the binder H1H143P (antibody, human IgG1, V domains shown, Human IgG1 Fc (H1H)) VH: QVQLQESGPGLVMPSQTLSLTCTVSGGSINSGDYYWNWIRQHPGKGLEWIGYIYYSEISYHNPSLKSRVTTSIDTSTNQFSLKLSSVTAADTAVYYCARDRVELRAFDIWGQGTMVTVSS VL: DIQMTQSPSSLSASVGDRVTITCQASQDISNYLNWYQQKPGKAPKLLIYDASNLETGVPSRFSGSGSGTDFTFTISSLQPEDIATYYCQHYDSLPLTFGQGTRLEIK is ____.
381000
